Experiment: inhibitors of TNFa-induced NFkB p65 translocation, primary screen, imaging, HUVEC, MLSMR starter and 10KST1 sets (AID 438);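 note: compound added about 3h40 before a 20 min TNFalpha stimulation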
Details: HUVEC TNFa-induced p65 nuclear translocation; measured here: nuclei count (cytotoxicity indicator), at 2.08 µM
Tag: Fulfilled if measured cell count is not below 500, Not fulfilled if it is.

Take a look at these entries with their results.
# MOLECULE, CLASSIFICATION
rows = [
    ("Cc1cc(NC(=O)c2ccc3nc(-c4ccccc4)c(-c4ccccc4)nc3c2)no1", "Fulfilled"),
    ("CCOc1ccc(C(c2nnnn2Cc2ccccc2)N2CCN(C(=O)c3ccco3)CC2)cc1 (stereo unspecified)", "Fulfilled"),
]

Query block: Decide: is the reported value of cell count for `COc1nc(OC)nc(N2CCC(C(=O)NC3CCCCCC3)CC2)n1` equal to or greater than 500?
Result block: Not fulfilled

Query block: Subsequent entry: `O=C(COc1ncnc2ccccc12)NCc1ccc2c(c1)OCO2`
Result block: Not fulfilled

Query block: Also check COC(=O)C(C)Oc1ccc2c3c(c(=O)oc2c1)CCCCC3 (stereo unspecified)
Result block: Fulfilled

Query block: Similarly, CC1CCCC(C(=O)OCc2ccccc2)N1 (stereo unspecified) ?
Result block: Fulfilled

Query block: One more molecule: `Cc1coc(NC(=O)CSc2nc(-c3ccncc3)cc(C(F)(F)F)c2C#N)n1`
Result block: Fulfilled

Query block: What do you have for `CCn1c(SCC(=O)Nc2nccs2)nnc1-c1ccncc1` ?
Result block: Not fulfilled

----------
Assay: reduction of polyQ htt aggregates in cells – imaging, exon1htt(103Q)mCFP cells, high-content imaging, primary screen (AID 483);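 note: compound exposure lasted 3 days before fixation; percent of the per-plate median nuclei count of sample wells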
Conditions: exon1htt(103Q)mCFP cell line, aggregate imaging, at 2 µM; measured here: cell count, toxicity
Below, each entry is listed alongside its reported nuclei count.
Expressed in %, but write only the number.

Examples with their reported nuclei count follow.
# MOLECULE, nuclei count [%]
data = [
    ("COc1ccc(S(=O)(=O)N2CCN(C3CCCCCCC3)CC2)cc1", 105),
    ("O=c1[nH]c2cccnc2n1Cc1ccco1", 114),
    ("Cc1nc(C)c(C(=O)C2=C(O)C(=O)N(CCN3CCOCC3)C2c2cccnc2)s1 (stereo not drawn)", 92.8),
    ("COCCn1nnnc1C(c1cc2cc(C)cc(C)c2[nH]c1=O)N1CCN(c2ccccc2F)CC1 (stereo not drawn)", 80.7),
    ("OCC#CCSc1nnc(-c2ccccc2Br)o1", 110),
]

Query block: Data request, read-out nuclei count, for `COc1ccc(S(=O)(=O)n2ccnc2)c2cccnc12`
Result block: 82

Query block: Continue with COCCN1C(=O)C(=O)/C(=C(/O)c2cccc(OC)c2)C1c1ccncc1 (stereo not drawn)
Result block: 95.1

Query block: Repeat for the following molecule: Cn1c(C(=O)NCC2CCCO2)cc2c(=O)[nH]c3ccccc3c21 (stereo not drawn)
Result block: 114

----------
Entries and their measured z-score follow.
Assay: Primary imaging screen for DUSP6 inhibitors that restore phospho-Erk in transfected HeLa cells, chemical complementation (AID 609)
Conditions: HeLa MKP-3 transfected, phospho-Erk imaging KS statistic; measured here: nuclear pErk red intensity z-score; at 10 µM; stronger effect = higher value; cells stimulated with TPA for 15 min
# respond with the number and nothing more

Some molecules with recorded z-score:
# MOLECULE, z-score
measured = [
    ("COc1ccc(C(=O)N2CCCC(c3ccccc3)C2)cc1 (stereo unspecified)", 0.742),
    ("COc1cc(C2C(C#N)=C(N)Oc3cc(N)ccc32)cc(OC)c1OC (stereo unspecified)", -0.643),
    ("COc1cccc2c1C(=O)c1c(O)c3c(c(O)c1C2=O)C[C@@](O)(C(C)=O)C[C@@H]3O[C@H]1C[C@H](N)[C@H](O)[C@H](C)O1", 4.38),
    ("NS(=O)(=O)c1cc2c(cc1C(F)(F)F)NCNS2(=O)=O", -0.708),
]

Query block: Tell me the measured z-score of `CCn1cc(C(=O)O)c(=O)c2ccc(C)nc21` , please.
Result block: 0.302

Query block: What do you get for `CN(C)CCCN1c2ccccc2Sc2ccccc21` ?
Result block: -0.156

Query block: Then O=C(NCC1CCCCN1)c1cc(OCC(F)(F)F)ccc1OCC(F)(F)F (stereo unspecified) ?
Result block: 0.103

Query block: Further, for `CC1=NS(=O)(=O)c2cc(Cl)ccc2N1` ?
Result block: -0.365

Query block: Same question for CCOC(=O)c1ccc(NCC(O)COc2ccccc2)cc1 (stereo unspecified) please.
Result block: -0.757

Query block: Similarly, `N[C@@H](Cc1cc(I)c(Oc2ccc(O)c(I)c2)c(I)c1)C(=O)O` ?
Result block: -0.441

----------
Molecular target: Voltage-gated potassium channel subunit beta-2 (Rattus norvegicus) (UniProt P62483)
Sequence (P62483 whole entry, looked up): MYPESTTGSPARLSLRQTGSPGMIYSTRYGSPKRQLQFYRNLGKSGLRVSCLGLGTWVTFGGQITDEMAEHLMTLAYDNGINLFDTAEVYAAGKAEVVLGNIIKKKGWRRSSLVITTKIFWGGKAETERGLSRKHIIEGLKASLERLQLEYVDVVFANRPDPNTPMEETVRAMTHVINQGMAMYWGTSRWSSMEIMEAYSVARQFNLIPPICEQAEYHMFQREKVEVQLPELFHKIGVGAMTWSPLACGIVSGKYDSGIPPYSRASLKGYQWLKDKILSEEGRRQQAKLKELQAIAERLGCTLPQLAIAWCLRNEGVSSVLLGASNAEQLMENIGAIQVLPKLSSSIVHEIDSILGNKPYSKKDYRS
Assay: inhibitors of rat Kvbeta2 reductase activity – biochemical, NADPH fluorescence, primary screen (AID 622);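 note: slope of raw intensity against log time taken from 70 to 1610 s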
Conditions: recombinant KvBeta, 4-cyanobenzaldehyde reduction, at 10 µM, stronger effect = higher value
TEST_READOUT: fluorescence slope
Just the number, please, no unit after it.

Some entries whose results are on file:
# COMPOUND, ENDPOINT_VALUE
data = [
    ("Cc1coc(NC(=O)CSc2nc(-c3ccncc3)cc(C(F)(F)F)c2C#N)n1", -0.471),
    ("Cc1ccc(Cn2nnc3c(=O)[nH]c(C4CCN(C(=O)c5cccs5)CC4)nc32)cc1", -0.546),
    ("Cc1cc(C)c2c(N)c(C(=O)N3CCN(c4ncccn4)CC3)sc2n1", -0.559),
    ("O=C(NC1(C(F)(F)F)NC(=O)N(Cc2ccco2)C1=O)c1cccnc1 (configuration not stated)", -0.461),
    ("COc1cccc(C(=O)Nc2cccc(C(=O)N3CCOCC3)c2)c1", -0.564),
]

Query block: Return reported fluorescence slope; argument: `Cc1ccccc1CN1CCN(CC(=O)NCc2ccco2)C1=O`
Result block: -0.511

----------
Test: inhibitors of TNFa-induced NFkB p65 translocation, primary screen, imaging, HUVEC, MLSMR starter and 10KST1 sets (AID 438);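 note: compound added about 3h40 before a 20 min TNFalpha stimulation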
Details: HUVEC TNFa-induced p65 nuclear translocation; measured here: nuclei count (cytotoxicity indicator), at 2.08 µM
Catalogue of cell count readings, one per entry.
Give your answer as a number; write no unit.

Below are worked cases with known answers.
# MOLECULE, TEST_READOUT, ENDPOINT_VALUE
data = [
    ("CN1CCN(CCCNC(=O)C2CC(=O)N(C3CCCCC3)C2)CC1 (stereo unspecified)", "cell count", 259),
    ("CS(=O)(=O)N(CC(=O)N1CCN(c2cccc(Cl)c2)CC1)C1CCCCC1", "cell count", 645),
    ("CCCn1c2ccccc2c2nnc(SCC(=O)OCC)nc21", "cell count", 412),
    ("COc1cc(Cn2c(C(=O)O)cc3sccc32)cc(OC)c1OC", "cell count", 434),
    ("Cc1nc(C)c(C(=O)Nc2ccc(Oc3ccccc3)cc2)o1", "cell count", 405),
]

Now consider the entry below.
Query block: Need cell count of Cc1ccc2[nH]c(=O)c(CN(CCc3ccccc3)Cc3nnnn3CC3CCCO3)cc2c1 (stereo unspecified) , thanks.
Result block: 676

----------
Consider the following compounds and their measured fluorescence slope readings.
Target: Voltage-gated potassium channel subunit beta-2 (Rattus norvegicus)
Test: inhibitors of rat Kvbeta2 reductase activity – biochemical, NADPH fluorescence, primary screen (AID 622);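 note: slope of raw intensity against log time taken from 70 to 1610 s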
Settings: recombinant KvBeta, 4-cyanobenzaldehyde reduction, at 10 µM, stronger effect = higher value
Please give the numeric answer without any surrounding text.

Take a look at these entries with their results.
# COMPOUND, TEST_READOUT, ENDPOINT_VALUE
records = [
    ("CCOC(=O)CSC1=Nc2ccccc2C2=NC(CC(=O)NCc3cccs3)C(=O)N12 (stereo unspecified)", "fluorescence slope", -0.572),
    ("CCNC(=O)C1CC(=O)N(Cc2ccc3c(c2)OCO3)C(=Nc2ccc(OCC)cc2)S1 (stereo unspecified)", "fluorescence slope", -0.588),
    ("Cc1nnc(SCC(=O)NC(C)(C)C)n1CCc1ccccc1", "fluorescence slope", -0.512),
    ("O=c1c(F)cn(C2CCCO2)c(=O)n1Cc1c(F)cccc1Cl (stereo unspecified)", "fluorescence slope", -0.549),
    ("CCCCN(C)Cc1c(C)[nH]c2c(Cl)cccc2c1=O", "fluorescence slope", -0.434),
]

Query block: Find the recorded fluorescence slope belonging to C=CCOc1ccc(C2C(C(=O)c3ccco3)=C(O)C(=O)N2Cc2cccnc2)cc1 (stereo unspecified) and report it.
Result block: -0.543

Query block: Then `Cn1c(CCCNC(=O)c2ccccc2)nc2ccccc21` ?
Result block: -0.275

Query block: // same read-out, input: O=C1CC(c2cccc(Cl)c2)CC(O)=C1C=NCCCO (stereo unspecified)
Result block: -0.393

Query block: // query: CC1C(c2ccccc2)N(C)CCC12NC(=O)NC2=O (stereo unspecified)
Result block: -0.397

Query block: What about `Cc1cc(NC(=O)CSc2nnc(C3CC3)n2C)no1` ?
Result block: -0.55

Query block: Query Cc1nc2ccccn2c1/C(O)=C1\C(=O)C(=O)N(CCN2CCOCC2)C1c1cccs1 (stereo unspecified) next
Result block: -0.301
